These measurements were taken from ChEMBL document CHEMBL4359886.

For each of the compounds below, state its EC50.
Tested on: Leishmania donovani
PROCEDURE SUMMARY: Antileishmanial activity against Leishmania donovani promastigotes incubated for 72 hrs by MTT assay
Type: functional, organism-based
Answers are plain numbers, in µM.

Sample answers from the record:
Entry OC1(Cc2ccc(Cl)cc2)c2cc(Cl)c(Cl)cc2C2=NCCN21 (centres undefined) ; assay system Leishmania donovani; EC50 recorded at 6.9

Entry OC1(Cc2ccc(Cl)cc2)c2c(Cl)ccc(Cl)c2C2=NCCN21 (centres undefined) ; assay system Leishmania donovani; EC50 recorded at 13.3

Entry OC1(Cc2ccc(Cl)cc2)c2ccccc2C2=NCCN21 (centres undefined) ; assay system Leishmania donovani; EC50 recorded at 11.8

Shifting focus to the compound that follows.
Entry CSc1ccc(CC2(O)c3cc(Cl)c(Cl)cc3C3=NCCN32)cc1 (centres undefined) ; assay system Leishmania donovani; EC50 recorded at 2.1

----------
PROCEDURE SUMMARY: Cytotoxicity against macrophage-differentiated human THP1 cells assessed as reduction in cell viability incubated for 72 hrs by MTT assay
Format: cell-based
MEASUREMENT SETUP: macrophage-differentiated THP-1 cells
MEASURE NAME: CC50 at 72 h (µM)
Numbers only, in µM.

Sample answers from the record:
The molecule OC1(Cc2ccccc2Cl)c2c(Cl)ccc(Cl)c2C2=NCCN21 (stereo not drawn) showed CC50 at 72 h equal to 82

The molecule CSc1ccc(CC2(O)c3cc(Cl)c(Cl)cc3C3=NCCN32)cc1 (stereo not drawn) showed CC50 at 72 h equal to 31.1

The molecule CSc1ccc(CC2(O)c3c(Cl)ccc(Cl)c3C3=NCCN32)cc1 (stereo not drawn) showed CC50 at 72 h equal to 84.4

Each molecule below has a reported value. Please supply its CC50 at 72 h.
1. OC1(Cc2ccc(Cl)cc2)c2ccccc2C2=NCCN21 (stereo not drawn)
2. C[C@@H]1[C@H](O)[C@@H](C)/C=C/C=C/C=C/C=C/C=C/C=C/C=C/[C@H](O[C@@H]2O[C@H](C)[C@@H](O)[C@H](N)[C@@H]2O)C[C@@H]2O[C@](O)(C[C@@H](O)C[C@@H](O)[C@H](O)CC[C@@H](O)C[C@@H](O)CC(=O)O[C@H]1C)C[C@H](O)[C@H]2C(=O)O
3. OC1(Cc2ccc(Cl)cc2)c2c(Cl)ccc(Cl)c2C2=NCCN21 (stereo not drawn)
4. OC1(Cc2ccc(Cl)cc2)c2cc(Cl)c(Cl)cc2C2=NCCN21 (stereo not drawn)

Response:
145
16
68.7
31.9
